Biological target: mutant G2019S LRRK2 (Homo sapiens (Human), UniProt Q5S007, G2019S)
Sequence (Q5S007 970-2527 G2019S): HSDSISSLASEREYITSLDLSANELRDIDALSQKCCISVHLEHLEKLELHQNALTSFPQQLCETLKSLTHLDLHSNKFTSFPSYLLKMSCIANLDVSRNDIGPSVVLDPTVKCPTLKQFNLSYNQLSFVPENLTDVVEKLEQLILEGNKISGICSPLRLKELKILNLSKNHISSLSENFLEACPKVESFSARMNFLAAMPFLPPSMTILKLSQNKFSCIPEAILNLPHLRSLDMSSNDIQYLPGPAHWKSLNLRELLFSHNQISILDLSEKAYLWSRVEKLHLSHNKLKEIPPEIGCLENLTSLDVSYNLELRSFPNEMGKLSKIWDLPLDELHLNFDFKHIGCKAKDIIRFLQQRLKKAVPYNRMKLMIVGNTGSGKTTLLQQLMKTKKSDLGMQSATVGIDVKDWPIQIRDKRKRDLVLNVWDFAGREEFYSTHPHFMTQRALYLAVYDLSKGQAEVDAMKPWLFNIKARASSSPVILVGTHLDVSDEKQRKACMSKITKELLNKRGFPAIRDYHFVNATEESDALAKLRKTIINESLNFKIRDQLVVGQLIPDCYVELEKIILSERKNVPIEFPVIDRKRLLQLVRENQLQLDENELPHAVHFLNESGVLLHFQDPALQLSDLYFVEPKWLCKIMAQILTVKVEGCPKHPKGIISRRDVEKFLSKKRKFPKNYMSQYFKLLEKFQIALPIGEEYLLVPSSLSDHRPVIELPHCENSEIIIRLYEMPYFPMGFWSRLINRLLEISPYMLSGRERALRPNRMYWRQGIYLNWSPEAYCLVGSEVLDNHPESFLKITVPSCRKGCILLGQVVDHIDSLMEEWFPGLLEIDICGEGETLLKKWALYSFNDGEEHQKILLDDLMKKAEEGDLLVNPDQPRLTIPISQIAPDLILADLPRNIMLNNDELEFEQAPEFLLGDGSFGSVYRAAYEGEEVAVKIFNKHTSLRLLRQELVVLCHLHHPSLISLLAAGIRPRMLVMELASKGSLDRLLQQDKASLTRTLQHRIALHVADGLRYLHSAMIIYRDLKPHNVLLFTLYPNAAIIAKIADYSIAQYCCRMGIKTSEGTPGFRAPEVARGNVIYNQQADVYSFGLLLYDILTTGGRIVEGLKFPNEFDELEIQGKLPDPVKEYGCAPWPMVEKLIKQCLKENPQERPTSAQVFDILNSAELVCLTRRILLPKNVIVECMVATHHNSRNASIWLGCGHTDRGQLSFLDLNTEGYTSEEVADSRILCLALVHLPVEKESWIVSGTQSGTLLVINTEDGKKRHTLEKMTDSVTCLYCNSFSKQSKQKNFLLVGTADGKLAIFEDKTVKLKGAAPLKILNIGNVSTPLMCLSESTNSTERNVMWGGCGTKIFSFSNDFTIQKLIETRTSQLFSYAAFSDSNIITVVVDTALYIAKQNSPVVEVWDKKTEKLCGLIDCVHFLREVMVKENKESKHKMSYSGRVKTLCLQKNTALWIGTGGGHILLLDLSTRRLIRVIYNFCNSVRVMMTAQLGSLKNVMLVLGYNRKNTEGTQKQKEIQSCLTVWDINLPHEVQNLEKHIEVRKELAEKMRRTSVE
Test: LRRK2 Lantha Screen kinase assay, mutant enzyme
Settings: geometric mean of 2-5 determinations unless otherwise indicated (a: >=6 determinations; b: single determination)
measure: log10(IC50) (log10 of the value in nM)

{"molecule": "N#Cc1cccc(-c2c[nH]c3ncnc(N4CCC(c5ncc[nH]5)CC4)c23)c1", "tested-system": "mutant G2019S LRRK2 (Homo sapiens (Human), UniProt Q5S007, G2019S)", "log10(IC50)": 2.36}
{"molecule": "c1nc(N2CCOCC2)c2c(-c3cnc4sccn34)c[nH]c2n1", "tested-system": "mutant G2019S LRRK2 (Homo sapiens (Human), UniProt Q5S007, G2019S)", "log10(IC50)": 1.78}
{"molecule": "CN(C)c1ncnc2[nH]cc(-c3cc(C#N)ccc3F)c12", "tested-system": "mutant G2019S LRRK2 (Homo sapiens (Human), UniProt Q5S007, G2019S)", "log10(IC50)": 2.28}
{"molecule": "Cn1cc(-c2c[nH]c3ncnc(N4CCOCC4)c23)cn1", "tested-system": "mutant G2019S LRRK2 (Homo sapiens (Human), UniProt Q5S007, G2019S)", "log10(IC50)": 1.56}
{"molecule": "COc1cc(F)cc(-c2c[nH]c3ncnc(N(C)C)c23)c1", "tested-system": "mutant G2019S LRRK2 (Homo sapiens (Human), UniProt Q5S007, G2019S)", "log10(IC50)": 1.69}
{"molecule": "COc1ccccc1-c1c[nH]c2ncnc(N3CCCC(O)C3)c12 (stereo not drawn)", "tested-system": "mutant G2019S LRRK2 (Homo sapiens (Human), UniProt Q5S007, G2019S)", "log10(IC50)": 1.79}
{"molecule": "CN(C)c1ncnc2[nH]cc(-c3cccc(C#N)c3F)c12", "tested-system": "mutant G2019S LRRK2 (Homo sapiens (Human), UniProt Q5S007, G2019S)", "log10(IC50)": 1.23}
{"molecule": "C[C@H]1CCCN(c2ncnc3[nH]cc(-c4cccc(C#N)c4F)c23)C1", "tested-system": "mutant G2019S LRRK2 (Homo sapiens (Human), UniProt Q5S007, G2019S)", "log10(IC50)": 1.54}
{"molecule": "N#Cc1cccc(-c2c[nH]c3ncnc(N4CCOCC4)c23)n1", "tested-system": "mutant G2019S LRRK2 (Homo sapiens (Human), UniProt Q5S007, G2019S)", "log10(IC50)": 1.41}
